Tested on: SN12C
experimental.details: NCI tumour cell line growth inhibition, 48 h
The source made the active and inactive calls. Cut-off read from the data, not from the text of the source: active = GI50 up to about 1.1 µM and inactive = higher. Where a SMILES comes first, the peptide text is derived from it. The star is where a group is joined. Boc = CC(C)(C)OC(=O)*; tBu = CC(C)(C)*
Each entry below carries its recorded GI50.

O=C(O)Cn1c(=O)[nH]c(=O)c2c1ncn2Cc1ccccc1 :: > 100 µM (inactive)
NCCCC1NC(=O)/C(=C(O)/C=C/C2CCC[C@@H]2CC2SCCS2)C1=O (stereo not given in full) :: > 100 µM (inactive)
CCCCCCCCCCOCCOCCOCCOCCCCC(O)CCCCCCCC1=C[C@H](C)OC1=O (stereo not given in full) :: 13.3 µM (inactive)
CC(OC(C)(C)C)C(NC(=O)C(N)CCCCNC(=O)OC(C)(C)C)C(=O)NC(Cc1ccccc1)C(=O)O (stereo not given) (H-Lys(Boc)-Thr(tBu)-Phe-OH; configuration not given here) :: > 100 µM (inactive)

Input: Query GI50 for COc1ccc2c(c1)/C(=C\c1c(C)nc3sc(C)cn13)C(=O)N2
Output: 8.49 µM (inactive)
